# System: HCC2218
# TEST_PROTOCOL: Growth inhibition (cell counting, day 5)
# Assay type: cell-based
# CONDITION_LABEL: Homo sapiens, Breast
METRIC_NAME: IC50 (nM)
Give your result in nM as a bare value.

Ask: I am curious: what IC50 value has been reported for Nc1nc(N[C@H]2C[C@@H]3CC[C@H]2C3)sc1C(=O)c1ccccc1[N+](=O)[O-] (relative stereo) ?
Result: 70.6

---

# Tested on: MV4-11
# TEST_PROTOCOL: Growth inhibition (cell counting, day 5)
# Assay type: cell-based
# CONDITION_LABEL: Homo sapiens, Leukemia
METRIC_NAME: pIC50
On this scale, pIC50 is minus log10 of a concentration expressed in M (mol/L).

Ask: I am curious: what pIC50 value has been reported for Nc1nc(N[C@H]2C[C@@H]3CC[C@H]2C3)sc1C(=O)c1ccccc1[N+](=O)[O-] (relative stereo) ?
Result: 7.55

---

# TEST_PROTOCOL: Pharmacokinetics in mice
# Assay type: in vivo
# CONDITION_LABEL: mouse, plasma, Oral - 2.5mg/kg
METRIC_NAME: Tmax (min)
Give your result in min as a bare value.

Ask: I am curious: what Tmax value has been reported for Nc1nc(N[C@H]2C[C@@H]3CC[C@H]2C3)sc1C(=O)c1ccccc1[N+](=O)[O-] (relative stereo) ?
Result: 30

---

# TEST_PROTOCOL: Pharmacokinetics in rats
# Type: in vivo
# CONDITION_LABEL: rat, plasma, iv, 1 mg/kg, rats, IV 1 mg/kg, Rat -2; read-out: Vss
METRIC_NAME: Vd (L)
Give your result in L as a bare value.

Ask: I am curious: what Vd value has been reported for Nc1nc(N[C@H]2C[C@@H]3CC[C@H]2C3)sc1C(=O)c1ccccc1[N+](=O)[O-] (relative stereo) [MC180295] ?
Result: 3.74

---

# System: WM88
# TEST_PROTOCOL: Growth inhibition (cell counting, day 5)
# Type: cell-based
# CONDITION_LABEL: Melanoma
METRIC_NAME: pIC50
On this scale, pIC50 is minus log10 of a concentration expressed in M (mol/L).

Ask: I am curious: what pIC50 value has been reported for Nc1nc(N[C@H]2C[C@@H]3CC[C@H]2C3)sc1C(=O)c1ccccc1[N+](=O)[O-] (relative stereo) ?
Result: 6.99

---

# TEST_PROTOCOL: Pharmacokinetics in rats
# Assay type: in vivo
# CONDITION_LABEL: rat, plasma, iv, 1 mg/kg, rats, IV 1 mg/kg, Rat -2
METRIC_NAME: Cmax (ng/mL)
Give your result in ng/mL as a bare value.

Ask: I am curious: what Cmax value has been reported for Nc1nc(N[C@H]2C[C@@H]3CC[C@H]2C3)sc1C(=O)c1ccccc1[N+](=O)[O-] (relative stereo) ?
Result: 568

---

# TEST_PROTOCOL: Liver microsome stability assay
# Format: in vitro ADME, mouse
# CONDITION_LABEL: male, CD-1, pooled liver microsomes, pH 7.4; Mouse liver microsomes, without NADPH, 60 min; read-out: Stability minus NADPH % Remaining @ 60 min
METRIC_NAME: remaining at 1 h, 1 µM
Please report the result as a number followed by the unit.

In [3]: df
Out[3]:
                                   molecule             metric_name  result
0  Nc1nc(N[C@H]2C[C@@H]3CC[C@H]2C3)sc1C(=O)c1ccccc1[N+](=O)[O-] [MC180380]  remaining at 1 h, 1 µM     88%

Please examine the following record next.
Ask: I am curious: what remaining at 1 h, 1 µM value has been reported for Nc1nc(N[C@@H]2C[C@H]3CC[C@@H]2C3)sc1C(=O)c1ccccc1[N+](=O)[O-] [MC180379] ?
Result: 86%

---

# TEST_PROTOCOL: Pharmacokinetics in rats
# Type: in vivo
# CONDITION_LABEL: rat, plasma, iv, 1 mg/kg, rats, IV 1 mg/kg, Rat -3
METRIC_NAME: Cmax (ng/mL)
Give your result in ng/mL as a bare value.

Ask: I am curious: what Cmax value has been reported for Nc1nc(N[C@H]2C[C@@H]3CC[C@H]2C3)sc1C(=O)c1ccccc1[N+](=O)[O-] (relative stereo) ?
Result: 951

---

# ASSAY_TARGET: CDK6-Cyclin D3 (Homo sapiens, UniProt Q00534)
# Sequence (Q00534 whole entry): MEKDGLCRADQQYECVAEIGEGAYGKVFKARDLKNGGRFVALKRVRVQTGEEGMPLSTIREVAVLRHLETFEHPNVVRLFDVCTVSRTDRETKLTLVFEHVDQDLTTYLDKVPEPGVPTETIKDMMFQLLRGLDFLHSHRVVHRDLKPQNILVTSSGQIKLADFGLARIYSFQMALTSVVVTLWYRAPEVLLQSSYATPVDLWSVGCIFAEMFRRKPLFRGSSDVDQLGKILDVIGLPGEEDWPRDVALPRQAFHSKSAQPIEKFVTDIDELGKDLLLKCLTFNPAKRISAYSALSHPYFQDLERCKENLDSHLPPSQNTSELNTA
# Sequence (P30281 whole entry partner): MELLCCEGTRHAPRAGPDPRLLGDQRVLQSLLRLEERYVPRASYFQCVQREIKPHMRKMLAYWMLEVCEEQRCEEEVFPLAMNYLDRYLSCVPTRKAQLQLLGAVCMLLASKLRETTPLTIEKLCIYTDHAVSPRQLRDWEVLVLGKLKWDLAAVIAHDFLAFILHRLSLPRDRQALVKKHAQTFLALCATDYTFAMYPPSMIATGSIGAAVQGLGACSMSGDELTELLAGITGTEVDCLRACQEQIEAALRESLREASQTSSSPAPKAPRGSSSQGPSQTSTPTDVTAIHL
METRIC_NAME: pIC50
On this scale, pIC50 is minus log10 of a concentration expressed in M (mol/L).

Ask: Lab request: please report pIC50 under test system CDK6-Cyclin D3 (Homo sapiens, UniProt Q00534) for Nc1nc(N[C@H]2C[C@@H]3CC[C@H]2C3)sc1C(=O)c1ccccc1[N+](=O)[O-] (relative stereo)
Result: 6.15

---

# TEST_PROTOCOL: Pharmacokinetics in rats
# Type: in vivo
# CONDITION_LABEL: rat, plasma, iv, 1 mg/kg, rats, IV 1 mg/kg, Mean; read-out: Vss
METRIC_NAME: Vd (L)
Give your result in L as a bare value.

Ask: I am curious: what Vd value has been reported for Nc1nc(N[C@H]2C[C@@H]3CC[C@H]2C3)sc1C(=O)c1ccccc1[N+](=O)[O-] (relative stereo) ?
Result: 4.46

---

# TEST_PROTOCOL: Pharmacokinetics in mice
# Format: in vivo
# CONDITION_LABEL: mouse, plasma, iv, 1 mg/kg, IV - 1mg/kg, read-out: T1/2 (converted)
METRIC_NAME: half-life (min)
Give your result in min as a bare value.

Ask: I am curious: what half-life value has been reported for Nc1nc(N[C@H]2C[C@@H]3CC[C@H]2C3)sc1C(=O)c1ccccc1[N+](=O)[O-] (relative stereo) ?
Result: 51.6

---

# TEST_PROTOCOL: Pharmacokinetics in rats
# Format: in vivo
# CONDITION_LABEL: rat, plasma, iv, 1 mg/kg, rats, IV 1 mg/kg, Rat -3; read-out: T1/2 (converted)
METRIC_NAME: half-life (h)
Give your result in h as a bare value.

Ask: I am curious: what half-life value has been reported for Nc1nc(N[C@H]2C[C@@H]3CC[C@H]2C3)sc1C(=O)c1ccccc1[N+](=O)[O-] (relative stereo) [MC180295] ?
Result: 14

---

# TEST_PROTOCOL: Pharmacokinetics in rats
# Format: in vivo
# CONDITION_LABEL: rat, plasma, iv, 1 mg/kg, rats, IV 1 mg/kg, Rat -1; read-out: Vss
METRIC_NAME: Vd (L)
Give your result in L as a bare value.

Ask: I am curious: what Vd value has been reported for Nc1nc(N[C@H]2C[C@@H]3CC[C@H]2C3)sc1C(=O)c1ccccc1[N+](=O)[O-] (relative stereo) ?
Result: 6.87

---

# TEST_PROTOCOL: Pharmacokinetics in mice
# Type: in vivo
# CONDITION_LABEL: mouse, plasma, IP 10 mg/kg
METRIC_NAME: AUC(0-t) (ng·h/mL)
Give your result in ng·h/mL as a bare value.

Ask: I am curious: what AUC(0-t) value has been reported for Nc1nc(N[C@H]2C[C@@H]3CC[C@H]2C3)sc1C(=O)c1ccccc1[N+](=O)[O-] (relative stereo) ?
Result: 1370

---

# System: KM12
# TEST_PROTOCOL: Growth inhibition (cell counting, day 5)
# Type: cell-based
# CONDITION_LABEL: Homo sapiens, Colon
METRIC_NAME: pIC50
On this scale, pIC50 is minus log10 of a concentration expressed in M (mol/L).

Ask: Lab request: please report pIC50 under test system KM12 for Nc1nc(N[C@H]2C[C@@H]3CC[C@H]2C3)sc1C(=O)c1ccccc1[N+](=O)[O-] (relative stereo)
Result: 6.99

---

# TEST_PROTOCOL: Liver microsome stability assay
# Assay type: in vitro ADME, dog
# CONDITION_LABEL: pooled liver microsomes, pH 7.4; Dog (beagle, male) liver microsomes, 1 µM
Recorded half-life at 1 µM, one value per entry.
Give your result in min as a bare value.

>>> df
                                  structure  numeric_value
0  Nc1nc(N[C@@H]2C[C@H]3CC[C@@H]2C3)sc1C(=O)c1ccccc1[N+](=O)[O-]           36.2

Please examine the following record next.
Ask: I am curious: what half-life at 1 µM value has been reported for `Nc1nc(N[C@H]2C[C@@H]3CC[C@H]2C3)sc1C(=O)c1ccccc1[N+](=O)[O-]` ?
Result: 52.5

---

# ASSAY_TARGET: CDK9/cyclin T2 (Homo sapiens, UniProt P50750)
# Sequence (P50750 whole entry): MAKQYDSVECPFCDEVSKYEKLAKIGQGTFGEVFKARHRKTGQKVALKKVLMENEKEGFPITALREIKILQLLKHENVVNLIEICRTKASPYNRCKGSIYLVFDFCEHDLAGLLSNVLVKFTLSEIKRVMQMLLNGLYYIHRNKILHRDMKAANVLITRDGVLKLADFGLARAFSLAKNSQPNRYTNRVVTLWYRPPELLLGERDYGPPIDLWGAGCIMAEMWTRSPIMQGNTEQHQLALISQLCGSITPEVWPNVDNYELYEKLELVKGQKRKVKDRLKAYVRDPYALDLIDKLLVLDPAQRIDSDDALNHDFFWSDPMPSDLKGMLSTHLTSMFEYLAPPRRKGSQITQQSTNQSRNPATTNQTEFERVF
# Sequence (O60583 whole entry partner): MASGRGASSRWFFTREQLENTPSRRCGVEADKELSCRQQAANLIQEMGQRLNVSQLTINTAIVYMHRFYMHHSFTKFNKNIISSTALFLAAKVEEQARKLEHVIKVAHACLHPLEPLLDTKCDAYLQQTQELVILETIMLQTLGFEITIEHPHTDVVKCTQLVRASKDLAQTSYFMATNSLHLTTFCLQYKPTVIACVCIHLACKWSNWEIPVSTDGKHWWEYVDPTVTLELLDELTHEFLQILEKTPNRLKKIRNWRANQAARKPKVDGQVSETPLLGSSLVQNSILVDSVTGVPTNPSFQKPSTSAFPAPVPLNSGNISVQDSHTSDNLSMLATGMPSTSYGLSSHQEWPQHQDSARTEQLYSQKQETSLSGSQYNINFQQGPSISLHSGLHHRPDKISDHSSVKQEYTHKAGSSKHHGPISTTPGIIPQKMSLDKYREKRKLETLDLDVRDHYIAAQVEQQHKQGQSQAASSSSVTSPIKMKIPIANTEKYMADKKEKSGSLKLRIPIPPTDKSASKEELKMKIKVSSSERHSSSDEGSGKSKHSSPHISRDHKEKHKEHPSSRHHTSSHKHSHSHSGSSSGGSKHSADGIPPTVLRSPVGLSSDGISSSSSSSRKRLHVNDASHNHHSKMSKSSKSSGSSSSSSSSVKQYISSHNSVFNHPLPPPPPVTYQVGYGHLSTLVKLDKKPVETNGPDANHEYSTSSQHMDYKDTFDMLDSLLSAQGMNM
# TEST_PROTOCOL: CDK enzymatic assay
# CONDITION_LABEL: Fig. 1A
METRIC_NAME: pIC50
On this scale, pIC50 is minus log10 of a concentration expressed in M (mol/L).

Ask: I am curious: what pIC50 value has been reported for Nc1nc(N[C@H]2C[C@@H]3CC[C@H]2C3)sc1C(=O)c1ccccc1[N+](=O)[O-] (relative stereo) ?
Result: 8.52
